# assay.comment: Long-term stability of unprocessed plasma samples at −80°C
# Format: in vitro ADME
# cond: human plasma, 3 months, nominal 1500 ng/mL
Below, each entry is listed with its recorded Mean measured concentration.
Write the answer as a number in ng/mL, unit excluded.

Task: Retrieve Mean measured concentration measured for CN(C)C(=O)c1cc2cnc(Nc3ccc(N4CCNCC4)cn3)nc2n1C1CCCC1 and print it.
Result: 1413

Task: Retrieve Mean measured concentration measured for CCN1CCN(Cc2ccc(Nc3ncc(F)c(-c4cc(F)c5nc(C)n(C(C)C)c5c4)n3)nc2)CC1 and print it.
Result: 1437

Task: Retrieve Mean measured concentration measured for Cc1nc2c(F)cc(-c3nc(Nc4ccc(CN5CCNCC5)cn4)ncc3F)cc2n1C(C)C and print it.
Result: 1503

Task: Retrieve Mean measured concentration measured for CC(=O)c1c(C)c2cnc(Nc3ccc(N4CCNCC4)cn3)nc2n(C2CCCC2)c1=O and print it.
Result: 1440

---

# assay.comment: Pre-processed stability in human plasma
# Type: in vitro ADME
# cond: RT (20–25°C), yellow light, 2.5 h, nominal 15 ng/mL
Below, each entry is listed with its recorded Mean measured concentration.

Example entries and their recorded answers appear below.
[[record]]
compound_structure = "Cc1nc2c(F)cc(-c3nc(Nc4ccc(CN5CCNCC5)cn4)ncc3F)cc2n1C(C)C"
reported_result = "15.3 ng/mL"

[[record]]
compound_structure = "CC(=O)c1c(C)c2cnc(Nc3ccc(N4CCNCC4)cn3)nc2n(C2CCCC2)c1=O"
reported_result = "15.5 ng/mL"

[[record]]
compound_structure = "CCN1CCN(Cc2ccc(Nc3ncc(F)c(-c4cc(F)c5nc(C)n(C(C)C)c5c4)n3)nc2)CC1"
reported_result = "15.7 ng/mL"


Consider the additional molecule presented here.
Task: Retrieve Mean measured concentration measured for CN(C)C(=O)c1cc2cnc(Nc3ccc(N4CCNCC4)cn3)nc2n1C1CCCC1 and print it.
Result: 15.9 ng/mL

---

# assay.comment: Long-term stability of unprocessed plasma samples at −80°C
# Assay type: in vitro ADME
# cond: human plasma, 3 months, nominal 1500 ng/mL
quantity.measured: Accuracy vs fresh QCs

[[record]]
molecule = "CC(=O)c1c(C)c2cnc(Nc3ccc(N4CCNCC4)cn3)nc2n(C2CCCC2)c1=O [Palbociclib, palbociclib]"
reported_result = "92.8%"

[[record]]
molecule = "CCN1CCN(Cc2ccc(Nc3ncc(F)c(-c4cc(F)c5nc(C)n(C(C)C)c5c4)n3)nc2)CC1 [Abemaciclib, abemaciclib]"
reported_result = "95.6%"

[[record]]
molecule = "CN(C)C(=O)c1cc2cnc(Nc3ccc(N4CCNCC4)cn3)nc2n1C1CCCC1 [Ribociclib, ribociclib]"
reported_result = "104%"


Task: Retrieve Accuracy vs fresh QCs measured for Cc1nc2c(F)cc(-c3nc(Nc4ccc(CN5CCNCC5)cn4)ncc3F)cc2n1C(C)C [Abemaciclib-M2] and print it.
Result: 98.7%

---

# assay.comment: Processed sample stability in final extract
# Format: physicochemical
# cond: 4°C, autosampler, 25.1 h, nominal 15 ng/mL
Below, each entry is listed with its recorded Accuracy vs fresh QCs.
Write the answer as a number in %, unit excluded.

Example entries and their recorded answers appear below.
[[record]]
compound = "CN(C)C(=O)c1cc2cnc(Nc3ccc(N4CCNCC4)cn3)nc2n1C1CCCC1 [Ribociclib, ribociclib]"
quantity_measured = "Accuracy vs fresh QCs"
reported_result = 99.2

[[record]]
compound = "CC(=O)c1c(C)c2cnc(Nc3ccc(N4CCNCC4)cn3)nc2n(C2CCCC2)c1=O [Palbociclib, palbociclib]"
quantity_measured = "Accuracy vs fresh QCs"
reported_result = 99.0

[[record]]
compound = "Cc1nc2c(F)cc(-c3nc(Nc4ccc(CN5CCNCC5)cn4)ncc3F)cc2n1C(C)C [Abemaciclib-M2]"
quantity_measured = "Accuracy vs fresh QCs"
reported_result = 100


Consider the additional compound presented here.
Task: Retrieve Accuracy vs fresh QCs measured for CCN1CCN(Cc2ccc(Nc3ncc(F)c(-c4cc(F)c5nc(C)n(C(C)C)c5c4)n3)nc2)CC1 [Abemaciclib, abemaciclib] and print it.
Result: 95.6

---

# assay.comment: Freeze-thaw stability of unprocessed plasma samples
# Format: in vitro ADME
# cond: human plasma, 3 freeze (-80°C)-thaw cycles, nominal 1500 ng/mL
Below, each entry is listed with its recorded Accuracy vs. nominal concentration.
Write the answer as a number in %, unit excluded.

[[record]]
molecule = "CC(=O)c1c(C)c2cnc(Nc3ccc(N4CCNCC4)cn3)nc2n(C2CCCC2)c1=O [Palbociclib, palbociclib]"
quantity_measured = "Accuracy vs. nominal concentration"
reported_result = 96.9

[[record]]
molecule = "CCN1CCN(Cc2ccc(Nc3ncc(F)c(-c4cc(F)c5nc(C)n(C(C)C)c5c4)n3)nc2)CC1 [Abemaciclib, abemaciclib]"
quantity_measured = "Accuracy vs. nominal concentration"
reported_result = 98.7

[[record]]
molecule = "CN(C)C(=O)c1cc2cnc(Nc3ccc(N4CCNCC4)cn3)nc2n1C1CCCC1 [Ribociclib, ribociclib]"
quantity_measured = "Accuracy vs. nominal concentration"
reported_result = 97.1


Task: Retrieve Accuracy vs. nominal concentration measured for Cc1nc2c(F)cc(-c3nc(Nc4ccc(CN5CCNCC5)cn4)ncc3F)cc2n1C(C)C [Abemaciclib-M2] and print it.
Result: 99.6

---

# assay.comment: Reinjection stability in final extract
# Type: physicochemical
# cond: reinjected, 4°C, autosampler, 25.95 h, nominal 1500 ng/mL
Below, each entry is listed with its recorded Accuracy vs fresh QCs.
Write the answer as a number in %, unit excluded.

[[record]]
compound_structure = "CC(=O)c1c(C)c2cnc(Nc3ccc(N4CCNCC4)cn3)nc2n(C2CCCC2)c1=O"
quantity_measured = "Accuracy vs fresh QCs"
reported_result = 100

[[record]]
compound_structure = "CCN1CCN(Cc2ccc(Nc3ncc(F)c(-c4cc(F)c5nc(C)n(C(C)C)c5c4)n3)nc2)CC1"
quantity_measured = "Accuracy vs fresh QCs"
reported_result = 103

[[record]]
compound_structure = "Cc1nc2c(F)cc(-c3nc(Nc4ccc(CN5CCNCC5)cn4)ncc3F)cc2n1C(C)C"
quantity_measured = "Accuracy vs fresh QCs"
reported_result = 103


Consider the additional compound presented here.
Task: Retrieve Accuracy vs fresh QCs measured for CN(C)C(=O)c1cc2cnc(Nc3ccc(N4CCNCC4)cn3)nc2n1C1CCCC1 and print it.
Result: 101

---

# assay.comment: Reinjection stability in final extract
# Assay type: physicochemical
# cond: reinjected, 4°C, autosampler, 25.95 h, nominal 15 ng/mL
quantity.measured: Accuracy vs fresh QCs (%)
Write the answer as a number in %, unit excluded.

[[record]]
compound_structure = "CN(C)C(=O)c1cc2cnc(Nc3ccc(N4CCNCC4)cn3)nc2n1C1CCCC1"
u = "%"
reported_result = 97.8


Task: Retrieve Accuracy vs fresh QCs measured for CC(=O)c1c(C)c2cnc(Nc3ccc(N4CCNCC4)cn3)nc2n(C2CCCC2)c1=O and print it.
Result: 100

Task: Retrieve Accuracy vs fresh QCs measured for Cc1nc2c(F)cc(-c3nc(Nc4ccc(CN5CCNCC5)cn4)ncc3F)cc2n1C(C)C and print it.
Result: 103

Task: Retrieve Accuracy vs fresh QCs measured for CCN1CCN(Cc2ccc(Nc3ncc(F)c(-c4cc(F)c5nc(C)n(C(C)C)c5c4)n3)nc2)CC1 and print it.
Result: 98.2

---

Below, each entry is listed with its recorded Mean measured concentration.
# assay.comment: Long-term stability of unprocessed plasma samples at −80°C
# Format: in vitro ADME
# cond: human plasma, 7 months, nominal 15 ng/mL
Write the answer as a number in ng/mL, unit excluded.

[[record]]
compound_structure = "CN(C)C(=O)c1cc2cnc(Nc3ccc(N4CCNCC4)cn3)nc2n1C1CCCC1"
u = "ng/mL"
reported_result = 14.8


Task: Retrieve Mean measured concentration measured for Cc1nc2c(F)cc(-c3nc(Nc4ccc(CN5CCNCC5)cn4)ncc3F)cc2n1C(C)C and print it.
Result: 14.5

Task: Retrieve Mean measured concentration measured for CCN1CCN(Cc2ccc(Nc3ncc(F)c(-c4cc(F)c5nc(C)n(C(C)C)c5c4)n3)nc2)CC1 and print it.
Result: 14.1

Task: Retrieve Mean measured concentration measured for CC(=O)c1c(C)c2cnc(Nc3ccc(N4CCNCC4)cn3)nc2n(C2CCCC2)c1=O and print it.
Result: 15.2

---

# assay.comment: Long-term stability of unprocessed plasma samples at −80°C
# Format: in vitro ADME
# cond: human plasma, 3 months, nominal 150 ng/mL
quantity.measured: Mean measured concentration (ng/mL)
Write the answer as a number in ng/mL, unit excluded.

[[record]]
compound = "CN(C)C(=O)c1cc2cnc(Nc3ccc(N4CCNCC4)cn3)nc2n1C1CCCC1 [Ribociclib, ribociclib]"
reported_result = 148

[[record]]
compound = "CC(=O)c1c(C)c2cnc(Nc3ccc(N4CCNCC4)cn3)nc2n(C2CCCC2)c1=O [Palbociclib, palbociclib]"
reported_result = 153


Task: Retrieve Mean measured concentration measured for Cc1nc2c(F)cc(-c3nc(Nc4ccc(CN5CCNCC5)cn4)ncc3F)cc2n1C(C)C [Abemaciclib-M2] and print it.
Result: 150

Task: Retrieve Mean measured concentration measured for CCN1CCN(Cc2ccc(Nc3ncc(F)c(-c4cc(F)c5nc(C)n(C(C)C)c5c4)n3)nc2)CC1 [Abemaciclib, abemaciclib] and print it.
Result: 149
